Below, each entry is listed alongside its reported Foxtail, Giant plant response rating.
Test system: giant foxtail (Setaria faberii)
assayMethodText: Test B pre/postemergence
Format: in vivo
measurementSetup: Postemergence, 125 g ai/ha; scale 0 to 100 (0 no effect, 100 complete control)

{"compound": "CON=Cc1nc(C2CC2)nc(N)c1Br [Compound 48]", "testedTarget": "giant foxtail (Setaria faberii)", "Foxtail, Giant plant response rating": 10}
{"compound": "CCOC(=O)c1nc(-c2ccc(Cl)cc2)nc(N)c1Br [Compound 37]", "testedTarget": "giant foxtail (Setaria faberii)", "Foxtail, Giant plant response rating": 10}
{"compound": "CCOC(=O)c1nc(C2CC2)nc(NOC(C)(C)C)c1Br [Compound 55]", "testedTarget": "giant foxtail (Setaria faberii)", "Foxtail, Giant plant response rating": 20}
{"compound": "COC(=O)c1nc(-c2ccc(Br)cc2)nc(N)c1Br [Compound 129]", "testedTarget": "giant foxtail (Setaria faberii)", "Foxtail, Giant plant response rating": 50}
{"compound": "Nc1nc(-c2ccc(Cl)cc2)nc(C(=O)[O-])c1Cl.[Na+] [Compound 117]", "testedTarget": "giant foxtail (Setaria faberii)", "Foxtail, Giant plant response rating": 80}
{"compound": "CCOC(=O)c1nc(C2CC2)nc(NCCOC)c1Br [Compound 39]", "testedTarget": "giant foxtail (Setaria faberii)", "Foxtail, Giant plant response rating": 0}
{"compound": "COC(=O)c1nc(-c2ccc(Cl)cc2)nc(N)c1Br [Compound 83]", "testedTarget": "giant foxtail (Setaria faberii)", "Foxtail, Giant plant response rating": 50}
